Taken from patent US20050196403A1.

# pIC50 per entry
Target: HLA-A*1101 (human)
Protocol details: competition with 125I probe peptide, purified HLA class I
pIC50: −log10 of the molar value. Non-standard residues stand in square brackets, D forms with d. No end group written: not given here. Abu = CC[C@H](N)C(=O)O
Readout name: pIC50

{"Binder": "BVYSPALNR (B at position 1 is alpha-amino butyric acid (in place of cysteine)) [1371.17 BVYSPALNR p53.124.B1V2R9]", "Obs value": 8.08}
{"Binder": "SV[Abu]MGGMNRR [1371.27 SVBMGGMNRR p53.240.V2B3]", "Obs value": 7.60}
{"Binder": "RV[Abu]A[Abu]PGRDRK [1371.31 RVBABPGRDRK p53.273.B3B5K11]", "Obs value": 6.70}
